system under test: human chemokine receptor CCR3 (Homo sapiens, UniProt P51677)
Sequence (P51677 1-355): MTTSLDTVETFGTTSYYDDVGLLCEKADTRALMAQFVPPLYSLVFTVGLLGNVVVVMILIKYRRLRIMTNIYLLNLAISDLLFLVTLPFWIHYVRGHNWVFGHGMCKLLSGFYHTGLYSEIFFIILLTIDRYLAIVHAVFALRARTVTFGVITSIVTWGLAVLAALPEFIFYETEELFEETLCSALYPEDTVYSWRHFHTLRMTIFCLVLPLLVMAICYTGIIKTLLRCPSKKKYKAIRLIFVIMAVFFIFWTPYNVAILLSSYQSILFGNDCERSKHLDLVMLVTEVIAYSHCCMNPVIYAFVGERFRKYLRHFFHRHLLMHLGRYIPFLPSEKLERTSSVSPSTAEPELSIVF
test readout: pKi
pKi here: minus log base 10 of the concentration, concentration in moles per litre.

Query: Check human chemokine receptor CCR3 (Homo sapiens, UniProt P51677) data and give pKi for Cc1cc(CN2CCC(N3C(=O)CC[C@@H]3C(=O)Nc3cc(C(N)=O)cc(C(N)=O)c3)CC2)ccc1Cl .
Reply: 6.84

Query: Print human chemokine receptor CCR3 (Homo sapiens, UniProt P51677) pKi for Cc1cc(CN2C3CCC2CC(N2C(=O)CC[C@@H]2C(=O)Nc2cccc(C(N)=O)c2)C3)ccc1Cl (stereo partly drawn) .
Reply: 6.95

Query: Fill in: pKi on human chemokine receptor CCR3 (Homo sapiens, UniProt P51677), entry Cc1cc(CN2CCC(N3C(=O)CC[C@H]3C(=O)Nc3ccc4c(c3)CCC(=O)N4)CC2)ccc1Cl
Reply: 7.74

Query: Recall the reported pKi of COC(=O)c1cc(NC(=O)[C@H]2CCC(=O)N2C2CCN(Cc3ccc(Cl)c(C)c3)CC2)cc(C(=O)N(C)C)c1 on human chemokine receptor CCR3 (Homo sapiens, UniProt P51677) and write it down.
Reply: 8.40

Query: Retrieve pKi on human chemokine receptor CCR3 (Homo sapiens, UniProt P51677); query CC(=O)Nc1nc2c(s1)-c1cc(NC(=O)[C@H]3CCC(=O)N3C3CCN(Cc4ccc(Cl)c(C)c4)CC3)ccc1CC2
Reply: 7.80

Query: Look up and report measured pKi (human chemokine receptor CCR3 (Homo sapiens, UniProt P51677)) for the following molecule: CCn1cc(NC(=O)[C@H]2CCC(=O)N2C2CCN(Cc3ccc(Cl)c(C)c3)CC2)cc1C(=O)NC
Reply: 7.82

Query: For human chemokine receptor CCR3 (Homo sapiens, UniProt P51677), give pKi of the listed molecule: CNC(=O)c1cccc(NC(=O)[C@H]2CCC(=O)N2C2CCN(Cc3cc(Br)cs3)CC2)c1
Reply: 6.35

Query: Provide pKi, tested on human chemokine receptor CCR3 (Homo sapiens, UniProt P51677), for Cc1cc(CN2CCC(N3C(=O)CC[C@@H]3C(=O)NC3CCC(NS(=O)(=O)c4ccccc4)CC3)CC2)ccc1Cl (stereo partly drawn) .
Reply: 7.51

Query: Identify measured pKi obtained with human chemokine receptor CCR3 (Homo sapiens, UniProt P51677) for Cc1cc(CN2CCC(N3C(=O)CC[C@@H]3C(=O)N[C@H]3CCN(C(=O)OC(C)(C)C)C3)CC2)ccc1Cl .
Reply: 6.27

Query: Find pKi for Cc1cc(CN2C3CCC2CC(N2C(=O)CC[C@@H]2C(=O)Nc2cccc(-c4nnnn4C)c2)C3)ccc1Cl (stereo partly drawn) on human chemokine receptor CCR3 (Homo sapiens, UniProt P51677) and write it down.
Reply: 7.42

Query: State pKi on human chemokine receptor CCR3 (Homo sapiens, UniProt P51677). Entry: Cc1cc(CN2CCC(N3C(=O)CC[C@H]3C(=O)NCc3ccccc3)CC2)ccc1Cl
Reply: 6.06

Query: For human chemokine receptor CCR3 (Homo sapiens, UniProt P51677), give the measured pKi of the entry Cc1cc(CN2CCC(N3C(=O)CC[C@H]3C(=O)N3CCc4cc(F)ccc4C3)CC2)ccc1Cl
Reply: 6.29

Query: GET pKi where system = human chemokine receptor CCR3 (Homo sapiens, UniProt P51677) and item = Cc1cc(CN2CCC(N3C(=O)N(C)C[C@H]3C(=O)Nc3ccno3)CC2)ccc1Cl
Reply: 6.48

Query: Report pKi from human chemokine receptor CCR3 (Homo sapiens, UniProt P51677) testing of Cc1cc(CN2CCC(N3C(=O)CC[C@@H]3C(=O)N3CCCc4ccccc43)CC2)ccc1Cl
Reply: 5.95

Query: Report pKi from human chemokine receptor CCR3 (Homo sapiens, UniProt P51677) testing of Cc1cc(C(=O)N(C)C)cc(NC(=O)[C@H]2CCC(=O)N2C2CCN(Cc3ccc(Cl)c(Cl)c3)CC2)n1
Reply: 7.74

###

system under test: human chemokine receptor CCR3 (Homo sapiens, UniProt P51677)
Construct: expressed in transfected cells; host or cells: K562 cell line (hCCR3-C1 cells), membrane preparation
method description: CCR3 receptor binding assay (SPA, 125I-eotaxin-1 displacement, hCCR3-C1 K562 cell membranes)
conditions used: 1 μM test compound; human Eotaxin-1 at human CCR3-Rezeptor; read-out: CCR3 % inh @ 1 μM
test readout: inhibition at 1 µM (%)
Quick reminder: number only, in %, skip the unit.

Query: Retrieve inhibition at 1 µM measured for Cc1cc(CN2CCC(N3C(=O)CC[C@@H]3C(=O)Nc3cccc(C(=O)N(C)C)c3)CC2)ccc1Cl and print it.
Reply: 94

Query: Identify the reported inhibition at 1 µM for the following entry. Cc1cc(CN2CCC(N3C(=O)CC[C@@H]3C(=O)Nc3cccc(C(=O)N4CCC4)c3)CC2)ccc1Cl
Reply: 100

Query: Please list inhibition at 1 µM recorded for the compound CCN(C)S(=O)(=O)c1cccc(NC(=O)[C@H]2CCC(=O)N2C2CCN(Cc3ccc(Cl)c(C)c3)CC2)c1
Reply: 97

Query: Consider the compound Cc1cc(CN2CCC(N3C(=O)CC[C@@H]3C(=O)N[C@H]3CC[C@H](NC(=O)Nc4ccccc4)CC3)CC2)ccc1Cl and give its recorded inhibition at 1 µM.
Reply: 63

Query: Supply measured inhibition at 1 µM of COc1cccc2c1CCN(C(=O)[C@@H]1CCC(=O)N1C1CCN(Cc3ccc(Cl)c(C)c3)CC1)C2 in your reply.
Reply: 49

Query: Complete the entry with inhibition at 1 µM for Cc1cc(CN2CCC(N3C(=O)N(C)C[C@H]3C(=O)Nc3ccno3)CC2)ccc1Cl
Reply: 70

Query: Indicate the recorded inhibition at 1 µM value for this compound: Cc1cc(CN2CCC(N3C(=O)CC[C@@H]3C(=O)Nc3cc(C(=O)N(C)CCO)cc(C(C)(C)C)c3)CC2)ccc1Cl
Reply: 100

Query: Name the recorded inhibition at 1 µM of the compound listed here: CN1C[C@H](C(=O)Nc2cc(C3CC3)nn2C)N(C2CCN(Cc3ccc(OC(F)(F)F)c(F)c3)CC2)C1=O
Reply: 44

Query: For the compound Cc1cc(CN2CCC(N3C(=O)CC[C@H]3C(=O)N3CCc4cccc(F)c4C3)CC2)ccc1Cl , give its measured inhibition at 1 µM value.
Reply: 76

Query: Read the entry CCNS(=O)(=O)c1cccc(NC(=O)[C@H]2CCC(=O)N2C2CC3CCC(C2)N3Cc2ccc(Cl)c(C)c2)c1 (stereo partly drawn) and write its reported inhibition at 1 µM.
Reply: 95

Query: Supply measured inhibition at 1 µM of Cc1cc(CN2CCC(N3C(=O)OC[C@H]3C(=O)Nc3cccc(C#N)c3)CC2)ccc1Cl in your reply.
Reply: 93

Query: Report inhibition at 1 µM, nothing else, for this compound: Cc1cc(CN2CCC(N3C(=O)CC[C@@H]3C(=O)Nc3cc(C4CC4)nn3C)CC2)ccc1Cl
Reply: 92

Query: Complete the entry with inhibition at 1 µM for Cc1cc(CN2CCC(N3C(=O)CC[C@@H]3C(=O)Nc3cc(C(=O)N(C)C)cc(C4CC4)n3)CC2)ccc1Cl
Reply: 101

Query: State its inhibition at 1 µM for this compound: CN1C[C@H](C(=O)Nc2cc(C3CC3)nn2C)N(C2CCN(Cc3ccc(Cl)c(Cl)c3)CC2)C1=O
Reply: 91

Query: Answer with the recorded inhibition at 1 µM of Cc1cc(CN2CCC(N3C(=O)CC[C@H]3C(=O)NCc3ccc(Cl)nc3C)CC2)ccc1Cl only.
Reply: 46

###

system under test: human chemokine receptor CCR3 (Homo sapiens)
Construct: expressed in transfected cells; host or cells: K562 cell line (hCCR3-C1 cells), membrane preparation
method description: CCR3 receptor binding assay (SPA, 125I-eotaxin-1 displacement, hCCR3-C1 K562 cell membranes)
conditions used: 1 μM test compound; human Eotaxin-1 at human CCR3-Rezeptor; read-out: CCR3 % inh @ 1 μM
test readout: inhibition at 1 µM

Query: Answer with the recorded inhibition at 1 µM of CNC(=O)c1cc(NC(=O)[C@H]2CCC(=O)N2C2CCN(Cc3ccc(Cl)c(C)c3)CC2)ccc1OC only.
Reply: 97%

Query: // fetch inhibition at 1 µM given entry CNC(=O)c1cc(C)nc(NC(=O)[C@H]2CCC(=O)N2C2CCN(Cc3ccc(Cl)c(C)c3)CC2)c1
Reply: 97%

Query: For the compound Cc1cc(CN2CCC(N3C(=O)CC[C@@H]3C(=O)Nc3cccc(C(=O)NC4CC4)c3)CC2)ccc1Cl , give its measured inhibition at 1 µM value.
Reply: 99%

Query: Please list inhibition at 1 µM recorded for the compound CCc1cc(C(=O)N(C)C)cc(NC(=O)[C@H]2CCC(=O)N2C2CCN(Cc3ccc(Cl)c(C)c3)CC2)n1
Reply: 100%
